B1: Azoarcus group I ribozyme (parent)
chain: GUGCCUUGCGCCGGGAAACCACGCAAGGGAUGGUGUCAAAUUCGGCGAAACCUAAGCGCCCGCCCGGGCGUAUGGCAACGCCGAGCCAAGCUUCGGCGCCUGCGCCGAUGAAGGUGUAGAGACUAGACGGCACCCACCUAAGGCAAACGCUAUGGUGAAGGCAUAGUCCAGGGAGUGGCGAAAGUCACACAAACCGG

# Variants of: B1
# ASSAY: reverse-splicing fitness (ratio to wild type); higher = more active; in vitro selection; Mg2+ level not given
PROPERTY MEASURED: reverse-splicing fitness
Respond numerically, and do not add a unit to the figure.

INSERT INTO measurements (variant_key, property_measured, observed_value) VALUES
  ('C82U A111U A120G A145G U176G', 'reverse-splicing fitness', 0.00453);

## Task Looking for the measured reverse-splicing fitness of C82U A111G A120U A145U C150G C169G U176A , can you help?
## Result 0.00235

## Task And for C82U A111U A145G C169A U176G ?
## Result 0.00582

## Task And for C82A A111U A120G A145U C150U C169U ?
## Result 0.00891

## Task And for A111U A145U C150A U176G ?
## Result 0.0853

## Task And for C82G A120U A145G C150A C169G ?
## Result 0.00459

## Task And for C82U A111U A120U A145U ?
## Result 0.0252

## Task And for C82A A111C A120U C169G U176G ?
## Result 0.00234
